# Tested on: SR leukemia
# Assay Procedure: NCI tumour cell line growth inhibition, 48 h; in the data active means GI50 below about 0.43 µM; inactive means the rest
Outcome codes: active, inactive

1. O=S(=O)(Nc1cc(Sc2cccc3cccnc23)c(O)c2ccccc12)c1ccccc1	active
2. O=c1cc(NC2CCN(CCCc3ccccc3)CC2)c2cc(Cl)ccc2o1	inactive
3. CCCCON(OC(=O)c1ccc2ccc3cccc4ccc1c2c34)C(C)=O	inactive
4. COc1ccc(/C=C/C(=O)C(CC2CCC2)C(=O)/C=C/c2ccc(OC)c(OC)c2)cc1OC	inactive
5. COc1cc(C(=O)c2cc(C)c3[nH]c4ccc(C)cc4c3c2C)cc(OC)c1OC	active
6. O=C1CSC(c2ccc(Cl)cc2Cl)N1c1ccc(F)cc1 (stereo not given)	inactive
7. CC(=O)C(=CN1CCN(C(=O)c2ccco2)C1=S)C(C)=O	inactive
8. Cn1c(=O)c(Cc2ccccc2F)cc2cnc(NC3CCOCC3)nc21	inactive
9. CN(C)CCN1C(=O)c2ccc3c4c(ccc(c24)C1=O)C(=O)N(CCN=C=S)C3=O	active
10. Nc1ccc(-c2nc3ccc(Cc4ccc5nc(-c6ccc(N)cc6)[nH]c5c4)cc3[nH]2)cc1	inactive

----------
Catalogue of molecules with associated TGI
# Test system: OVCAR-5 ovarian
# Assay Procedure: NCI tumour cell line growth inhibition, 48 h
Measured Metric: TGI

1. CSc1ncnc2c1ncn2CCC#N	> 100 µM
2. O=C(CN(c1ccccc1)c1ccccc1)n1nnc2ccccc21	> 100 µM
3. O=C1O[C@H](c2ccc3c(c2)OCO3)[C@H]2CO[C@@H](c3ccc4c(c3)OCO4)[C@@H]12	> 100 µM
4. COc1cc(NC(C)CCCN)c2nccc(C)c2c1 (stereo unspecified)	> 100 µM
5. COc1ccc(/C=C/C(=O)C(CC2CCC2)C(=O)/C=C/c2ccc(OC)c(OC)c2)cc1OC	5.6 µM
6. COc1ccc2cc(C(C)C(=O)N3CCOC3=O)ccc2c1 (stereo unspecified)	> 100 µM

----------
Listing of entries alongside the reported TGI.
# System: SF-295 CNS
# Assay Procedure: NCI tumour cell line growth inhibition, 48 h
Measured Metric: TGI

1) Nc1ccn(C2OC(CO)C(O)C2O)c(=O)c1 (stereo unspecified)	> 625 µM
2) O=c1cc(NC2CCN(CCCc3ccccc3)CC2)c2cc(Cl)ccc2o1	29.9 µM
3) CCCCCCCCCCCCCCCCCCOc1ccccc1CC(=O)OCC[N+]1(C)CCCC1	8.8 µM
4) ClCc1cccc(Cn2cnc3nc(Cl)nc(Cl)c32)c1	3.78 µM
5) CC(CO)(CO)NCCCCn1ccc2c1C(=O)c1c(c(O)c3ccccc3c1O)C2=O	26.6 µM
6) COc1ccc(NS(=O)(=O)c2ccc(NC(NC(=O)CC(C)C)(C(F)(F)F)C(F)(F)F)cc2)nn1	> 100 µM
7) CSc1cnc2ccccc2c1SC1CN(Cc2ccccc2)c2ccccc2C1=O (stereo unspecified)	> 100 µM
8) CC1=NNC(=O)C1C(CC(=O)c1c[nH]c2ccccc12)C(=O)O (stereo unspecified)	> 100 µM
9) CCn1c(-c2ccc(OC(C)=O)cc2)c(C)c2cc(OC(C)=O)ccc21	96.7 µM
10) O=C1CCC(O)=C1N=Nc1ccccc1	> 100 µM
11) N#Cc1cccnc1Cl	> 100 µM

----------
# Test system: TK-10 renal
# Assay Procedure: NCI tumour cell line growth inhibition, 48 h
GI50 values by entry
Measured Metric: GI50

1. O=c1cc(NC2CCN(CCCc3ccccc3)CC2)c2cc(Cl)ccc2o1	13.4 µM
2. COc1cc(/C=C/c2cc(/C=C/c3ccc(O)c(OC)c3)n(C(=O)Nc3ccc(C)cc3C)n2)ccc1O	0.529 µM
3. COc1ccc(CCN2COc3c([C@@H](C)CCC=C(C)C)ccc(C)c3C2)cc1OC	2.19 µM
4. C#Cc1c(I)n(C2OC(CO[Si](C)(C)C(C)(C)C)C3OC(C)(C)OC32)c(=O)[nH]c1=O (centres undefined)	11.2 µM
5. CCCCON(OC(=O)c1ccc2ccc3cccc4ccc1c2c34)C(C)=O	30.5 µM
6. Cc1[nH]c2ccccc2c(=O)c1CC=C(Cl)Cl	25.5 µM
7. CC(=O)C(=CN1CCN(C(=O)c2ccco2)C1=S)C(C)=O	4.19 µM
8. CC/C=C\C[C@H]1C/C=C2/C(=O)C=C[C@@H]2C/C=C\CCCC(=O)O1	1.8 µM
9. ClCc1cccc(Cn2cnc3nc(Cl)nc(Cl)c32)c1	5.95 µM
10. COc1ccc(/C=C/C(=O)C(CC2CCC2)C(=O)/C=C/c2ccc(OC)c(OC)c2)cc1OC	2.59 µM
11. Nc1ccc(-c2nc3ccc(Cc4ccc5nc(-c6ccc(N)cc6)[nH]c5c4)cc3[nH]2)cc1	24.4 µM
12. CN(C)CCN1C(=O)c2ccc3c4c(ccc(c24)C1=O)C(=O)N(CCN=C=S)C3=O	0.0218 µM
13. COc1ccc(-c2nn(-c3ccc(NC(=O)Nc4cc(C(F)(F)F)cc(C(F)(F)F)c4)cc3)cc2-c2ccncc2)cc1Cl	1.85 µM
14. COc1cc2[nH]c(C(=O)c3cc(OC)c(OC)c(OC)c3)c(N)c2cc1C#CC1CC1	40 µM
15. CC(C)C[C@H](NC(=O)/C=C/Cn1ccc2ccccc2c1=O)B(O)O	3.27 µM
16. CC(CO)(CO)NCCCCn1ccc2c1C(=O)c1c(c(O)c3ccccc3c1O)C2=O	1.51 µM
17. Cn1c(=O)c(Cc2ccccc2F)cc2cnc(NC3CCOCC3)nc21	> 25 µM
18. Nc1ccc2cc3ccc(N)cc3nc2c1	0.513 µM
19. COc1cccc(C#Cc2ccccc2C#CCCCCO)c1	13.1 µM

All values here come from PubChem BioAssay (NCI).
